settings: 298.15 K; 101.33 kPa; Liquid
PROPERTY_LABEL: mass density (kg/m3)

• CCCCCCCCCCO = 826.64
• CCCCCCCCCO = 824.6
• CCCCCCCCCCCO = 829.34
• CCCCCCCCO = 822.21
• CCCCCCCCN = 779.95

---

assay: Solid-liquid equilibrium temperature; settings: 101.3 kPa; Crystal
PROPERTY_LABEL: Solid-liquid equilibrium temperature (K)

* CCCCCCCCO [octan-1-ol] | 258.03
* CCCCCCCCN [1-octanamine] | 273.37
* CCCCCCCCCCCO [1-undecanol] | 289.63
* CCCCCCCCCCO [decan-1-ol] | 278.67
* CCCCCCCCCO [nonan-1-ol] | 268.1
